Reference for the values: PubChem BioAssay AID192

Tested on: BDF1 mice, B16 melanoma ip, median survival T/C
Experiment: NCI In Vivo Anticancer Drug Screen. Data for tumor model B16 Melanoma (intraperitoneal) in B6D2F1 (BDF1) mice
Settings: endpoint: median survival time; dose: 200.0 mg/kg/injection; schedule: Q01DX009 (ip); vehicle: saline with Tween-80; higher = longer survival
Toxic doses and inconclusive results are not listed. Square brackets hold non-standard residues; d marks the D form. Peptide text beside a SMILES is read from it. * marks the point of attachment. ξ: configuration not given here. Cbz = O=C(OCc1ccccc1)*; ξNle = CCCCC(N)C(=O)O
Provide the recorded T/C for the entries that follow.

COc1cc(NC(=O)CC(C)=O)cc(OC)c1OC | 95 % of control
CCN(CC)C(C(=O)Nc1ccccc1)C(=O)Nc1ccccc1 | 90 % of control
Nc1nc(N)nc(-c2ccc([N+](=O)[O-])o2)n1 | 97 % of control
CN(C)c1ccc(/C=C2\C=Cc3ccccc32)cc1 | 92 % of control
c1cncc(C2OCCO2)c1 | 89 % of control
O=CNNC=O | 95 % of control
CC(C)C1CC2CCC3C(C)(C(=O)O)CCCC3(C)C2CC1CO (stereo unspecified) | 94 % of control
CC(C)C(Br)C(=O)NC(Cc1ccccc1)C(=O)O (stereo unspecified) | 95 % of control
O=C1c2cccnc2C(=O)c2c(O)ccc(O)c21 | 89 % of control
CC(C)=CCc1c2c(c(O)c3c(=O)c(-c4ccc(O)c(O)c4)coc13)C=CC(C)(C)O2 | 100 % of control

Here are 3 compounds. What values of T/C were reported for them?
1. O=[N+]([O-])c1ccc2ccccc2c1-c1c([N+](=O)[O-])ccc2ccccc12
2. O=C(O)CCS(=O)(=O)CCC(=O)O
3. O=C1NC(=O)/C(=C/C=C/c2ccccc2)S1

1. 97 % of control
2. 102 % of control
3. 114 % of control

Kindly give each listed record's T/C.
1. CCCCC(NC(=O)OCc1ccccc1)C(=O)NCC(=O)OC (stereo unspecified) (Cbz-[ξNle]-Gly-OMe)
2. COc1cc(C2C(C(=O)OC/C=C/c3ccc4c(c3)OCO4)C(c3cc(OC)c(OC)c(OC)c3)C2C(=O)OC/C=C/c2ccc3c(c2)OCO3)cc(OC)c1OC (stereo unspecified)
3. COc1ccc2nonc2c1
4. CC(=Nc1ccccc1)C1=C(O)C(CC(C)C)NC1=O (stereo unspecified)
5. COc1ccccc1NC(=O)c1ccccc1
6. OCC1OC(n2cnc3c(=S)nc[nH]c32)C(O)C1O (stereo unspecified)

1: 112 % of control; 2: 88 % of control; 3: 101 % of control; 4: 96 % of control; 5: 107 % of control; 6: 100 % of control

Please state, for each entry, its recorded T/C.
1. CCCC[N+](CCCC)(CCCC)CCCC.Cc1ccc([SH2+])c([SH2+])c1.Cc1ccc([SH2+])c([SH2+])c1.[Fe+3]
2. CC(N)C(=O)NC(CO)C(=O)O (stereo unspecified)

1: 98 % of control; 2: 97 % of control
